The measurements presented in this section are drawn from patent US10618964B2.

The binders listed here are annotated with their OD450 ratio sample/blank.
- system: native soluble IL-6R in human plasma (human, UniProt P08887)
- method-summary: ELISA 3, periplasmic extract; competitor BN-12; human plasma
// return just the number, without any unit appended

Consider the worked cases shown below.
binder	obs-value
IL6RPMP106D6 (VHH) VHH: EVQLVESGGGLVQAGGSLRLSCAASGFTFDDYAIGWFRQAPGKEREGVSCMISSDGSTYYADSVKGRFTISSDNAKNTVYLQMDSLKPEDTAVYYCAADLSLYGCYVGDRDLYDYDYWGQGTQVTVSS	1
IL6RPMP104B9 (VHH) VHH: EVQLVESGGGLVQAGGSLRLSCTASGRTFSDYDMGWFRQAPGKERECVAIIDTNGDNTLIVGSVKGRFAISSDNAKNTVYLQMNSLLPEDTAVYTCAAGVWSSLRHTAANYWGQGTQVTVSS	1
IL6RPMP107B4 (VHH) VHH: EVQLVESGGGLVQAGGSLRLSCVASGLRLNMHRMGWFRQAPGKEREFVARIFTDDGDSYYADSVQGRFTISGDNAKNTVYLQMNSLKPEDTGVYFCAAGYMSGAESPIGYDNWGQGTQVTVSS	1.04

(Q) Which OD450 ratio sample/blank value belongs to IL6RPMP101F1 (VHH) VHH: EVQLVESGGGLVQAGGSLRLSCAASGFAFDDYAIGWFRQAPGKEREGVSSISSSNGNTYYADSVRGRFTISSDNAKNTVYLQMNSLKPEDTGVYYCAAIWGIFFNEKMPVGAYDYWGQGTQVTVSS ?
(A) 0.957

(Q) // OD450 ratio sample/blank lookup, key: IL6RPMP104E4 (VHH) VHH: EVQLVESGGGTVQAGGSLKLSCAASGRTFTNYAMGWFRQAPGKEREFVAAIAYATHFADSVKGRFTISRGNAKNTVYLQMNSLKPEDTAVYYCAADLSLSKMVSKITSDMDYWGKGTLVTVSS
(A) 1.03

(Q) Requested field: OD450 ratio sample/blank. Item: IL6RPMP103D7 (VHH) VHH: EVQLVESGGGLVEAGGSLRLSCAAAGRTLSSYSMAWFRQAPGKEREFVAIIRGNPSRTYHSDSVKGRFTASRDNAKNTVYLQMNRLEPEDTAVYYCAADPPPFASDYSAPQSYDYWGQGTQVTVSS
(A) 0.98
